Measured pIC50 on TNFα (Homo sapiens, UniProt P01375) follows.
Sequence (P01375 77-233 limits assumed): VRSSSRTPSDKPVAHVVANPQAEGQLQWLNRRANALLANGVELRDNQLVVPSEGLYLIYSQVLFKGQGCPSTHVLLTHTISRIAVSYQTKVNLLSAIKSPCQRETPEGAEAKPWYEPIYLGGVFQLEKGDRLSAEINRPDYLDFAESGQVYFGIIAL
pIC50: −log10 of the molar value.

// worked examples, pIC50 included
- molecule: "O=C1NC[C@@H]2CN(c3ncc(-c4ccc5c(=O)n6n(c5c4)[C@@H](c4ccccc4OC(F)F)CC6)cn3)CCN12 (single isomer, unassigned)"
  measure-name: "pIC50"
  assay-value: "> 6.00"
- molecule: "CC(C)(O)c1ncc(-c2ccc3c(=O)n4n(c3c2)[C@H](c2ccccc2OC(F)F)CC4)cn1 (single isomer, unassigned)"
  measure-name: "pIC50"
  assay-value: "5.00 to 6.00"
- molecule: "O=C1NC[C@@H]2CN(c3ncc(-c4ccc5c(c4)[C@H]4[C@@H](c6ccccc6OC(F)F)CCN4C5=O)cn3)CCN12 (single isomer, unassigned)"
  measure-name: "pIC50"
  assay-value: "> 6.00"

Turning now to a further molecule:
Exercise: Return reported pIC50; argument: O=C1C[C@@H](CNc2ncc(-c3ccc4c(=O)n5n(c4c3)[C@@H](c3ccccc3OC(F)F)CC5)cn2)CN1 (single isomer, unassigned)
Key: 5.00 to 6.00

###

The following compounds are shown together with reported IC50 values.
molecular target: TNFα (Homo sapiens, UniProt P01375)

Exercise: Look up IC50 with TNFα (Homo sapiens, UniProt P01375) for this compound: O=c1c2ccc(-c3cnc(N4CCO[C@@H](CO)C4)nc3)cc2n2n1CC[C@@H]2c1ccccc1OC(F)F (single isomer, unassigned)
Key: < 1000 nM

Exercise: Query IC50 on TNFα (Homo sapiens, UniProt P01375) for O=C1c2ccc(-c3cnc(N4CCOCC4)nc3)cc2[C@H]2[C@@H](c3ccccc3OC(F)F)CCN12 (single isomer, unassigned)
Key: < 1000 nM

###

IC50 data for UniProt P01375 follow.

Known IC50 results, listed for orientation:
- compound: "CC(C)(O)c1ncc(-c2ccc3c(c2)[C@H]2[C@@H](c4ccccc4OC(F)F)CCN2C3=O)cn1 (single isomer, unassigned)"
  assay-value: "1000 to 10000 nM"
- compound: "O=C1NC[C@H]2CN(c3ncc(-c4ccc5c(=O)n6n(c5c4)[C@H](c4ccccc4OC(F)F)CC6)cn3)CCN12 (single isomer, unassigned)"
  assay-value: "< 1000 nM"
- compound: "CC(=O)N1CCN(c2ncc(-c3ccc4c(=O)n5n(c4c3)[C@@H](c3ccccc3OC(F)F)CC5)cn2)C[C@H]1C (single isomer, unassigned)"
  assay-value: "< 1000 nM"
- compound: "CC(=O)N1CCN(c2ncc(-c3ccc4c(=O)n5n(c4c3)[C@@H](c3ccccc3OC(F)F)CC5)cn2)[C@H](C)C1"
  assay-value: "< 1000 nM"
- compound: "O=C(O)C1CCN(c2ncc(-c3ccc4c(=O)n5n(c4c3)C(c3ccccc3OC(F)F)CC5)cn2)CC1 (stereo not drawn)"
  assay-value: "1000 to 10000 nM"

Now, please, on to the next compound.
Exercise: Which IC50 is reported for this compound? O=C1C[C@H](CNc2ncc(-c3ccc4c(=O)n5n(c4c3)[C@@H](c3ccccc3OC(F)F)CC5)cn2)CN1 (single isomer, unassigned)
Key: 1000 to 10000 nM

###

target: TNFα (Homo sapiens)
measure-name: IC50

- compound: "Cc1ccc(OC(F)F)c([C@@H]2CCn3c(=O)c4cc(F)c(-c5cnc(C(C)(C)O)nc5)cc4n32)c1 (single isomer, unassigned) [Example 13.2]"
  assay-value: "< 1000 nM"
- compound: "Cc1ccc(OC(F)F)c([C@@H]2CCn3c(=O)c4ccc(-c5cnc(C(C)(C)O)nc5)cc4n32)c1 [Example 14.2]"
  assay-value: "< 1000 nM"
- compound: "COC[C@H]1CCCN1c1ncc(-c2ccc3c(c2)[C@H]2[C@@H](c4ccccc4OC(F)F)CCN2C3=O)cn1 (single isomer, unassigned) [Example 10.4]"
  assay-value: "> 10000 nM"

Exercise: Requested read-out IC50, target or system TNFα (Homo sapiens), entry O=c1c2ccc(-c3cnc(N4CCC(O)CC4)nc3)cc2n2n1CCC2c1ccccc1OC(F)F (stereo not shown) [Example 4.2]
Key: < 1000 nM
